TGI overview
System: UO-31 renal
Experiment: NCI tumour cell line growth inhibition, 48 h
measurement-kind: TGI (µM)

molecule	measurement-kind	value-unit	relational-operator	value-measured
Nc1nc(N)c2ncn(-c3ccc(Cl)cc3)c2n1	TGI	µM	>	100
COCN(CCC1=CCCCC1)C(=O)OC	TGI	µM	>	100
Cc1cccc(NC(=O)/C(=N\NC(C)(C)C)C2NC(=S)NC2=O)c1C (stereo unspecified)	TGI	µM	>	100
COC(C(O)CO)C(O)C(O)C(=O)NNc1ccccc1 (stereo unspecified)	TGI	µM	>	100
CC(C)(C)OC(=O)NC(Cc1ccc(OCc2ccccc2)cn1)C(=O)N1CCCCC1 (stereo unspecified)	TGI	µM	=	71.4
COc1ccc(C(=C(Cl)c2ccccc2)c2ccc(OC)cc2)cc1	TGI	µM	>	100
COC1(OC)C2(Cl)C(Cl)=C(Cl)C1(Cl)C1C=CC=CC12 (stereo unspecified)	TGI	µM	>	100
CC1CC[C@]2(C(=O)O)CCC3(C)C(=CC(=O)C4[C@@]5(C)CCC(=O)C(C)(C)C5CC[C@]43C)[C@@H]2[C@H]1C (stereo partly specified)	TGI	µM	=	38.1
CCN(CC)C(=S)N/N=C(/C)c1cccc(/C(C)=N\NC(=S)N(CC)CC)n1	TGI	µM	=	7.94
Cc1cccc(NC(=O)C(=O)C(C(=O)c2ccc3ccccc3c2)C2OC(=O)c3ccccc32)c1C (stereo unspecified)	TGI	µM	=	35.7
Cc1cc(S(=O)(=O)Nc2nnc(-c3ccccc3)c(-c3ccccc3)n2)c(SCC(N)=O)cc1Cl	TGI	µM	>	100
CCOC(=O)c1nc2ccc(C(F)(F)F)cc2nc1NCc1cc(OC)c(OC)c(OC)c1	TGI	µM	=	99.5
N#CC(NNC(=O)Cc1ccccc1)c1c(O)ccc2ccccc12 (stereo unspecified)	TGI	µM	=	11.2
O=Cc1ccc2c(c1)CC1(Cc3ccccc3C1)C2	TGI	µM	=	58.7
CCCCN1C(=O)N(c2ccc(OCC)cc2)C2N(CCCC)C1C(C)(C)C2(C)C (stereo unspecified)	TGI	µM	=	88.9
CCOC(=O)CNc1c(OCc2ccccc2)c(=O)c1=O	TGI	µM	>	100

* * *

TGI overview
Test system: UACC-257 melanoma
Experiment: NCI tumour cell line growth inhibition, 48 h

compound	TGI
c1ccc2c(c1)ccn2CCc1c[nH]c2ccccc12	> 10 µM
O=C1/C(=N/O)Cc2c(Br)ccc(Br)c21	> 100 µM
COc1cc2c(cc1OC)C(CC(=O)NN=C(C)C)NCC2 (stereo not drawn)	> 100 µM
CC(=O)CSCc1ccccn1	> 100 µM
Nc1nc(N)c2ncn(-c3ccc(Cl)cc3)c2n1	> 100 µM
CC1NC(=O)CC(c2ccccc2)N(N=O)C1c1ccccc1 (stereo not drawn)	> 100 µM
O=C(Cc1ccccc1)NN1C(=O)C(Cl)C1c1cc(Br)ccc1O (stereo not drawn)	> 100 µM
CON(C)C(=O)CNC(=O)OCC1c2ccccc2-c2ccccc21	> 100 µM
Cc1cccc(N2CCN(C(=S)c3ccc4c(c3)OCO4)CC2)c1	> 100 µM
Cc1ccc(SCC(CF)OC(C)n2cnc3c(=O)[nH]c(N)nc32)cc1 (stereo not drawn)	> 100 µM
Cc1ccc(/C=C2\CCCc3ccccc3C2=O)cc1	> 100 µM
CS/C(N)=N\NC(=O)CCC(=O)Nc1ccccc1C(F)(F)F	> 100 µM
COc1ccccc1CCc1cc(OC)c(OC)c(OC)c1	> 100 µM

* * *

System: MDA-MB-435
Experiment: NCI tumour cell line growth inhibition, 48 h

compound	measured-target	TGI
CCCCCCCC/C=C/CCCCCCCC(=O)OC[C@H]1O[C@@H](n2ccc(N)nc2=O)C(F)(F)[C@@H]1O	MDA-MB-435	> 100 µM
CC(=O)OCC12C(=O)C[C@@H](C)C3(CC(c4ccoc4)OC3=O)C1CCC(OC(C)=O)C21CO1 (stereo partly specified)	MDA-MB-435	> 100 µM
Oc1cccnc1CN1CCCCC1	MDA-MB-435	> 100 µM
CN(C)C(=O)c1cc2cnc(Nc3ccc(-c4csc5c(=S)cc(N6CCOCC6)oc45)cc3)nc2n1C1CCCC1	MDA-MB-435	> 50 µM
COc1ccc(C(=C(Cl)c2ccccc2)c2ccc(OC)cc2)cc1	MDA-MB-435	> 100 µM
O=C1/C(=N/O)Cc2c(Br)ccc(Br)c21	MDA-MB-435	> 100 µM

* * *

Tested on: ACHN renal
Assay: NCI tumour cell line growth inhibition, 48 h
TGI overview

compound	measured-target	TGI
COc1nc2ccccc2cc1-c1nc2c(cnn2-c2ccc(Br)cc2)c(=O)[nH]1	ACHN renal	> 50 µM
CN1CCC(O)(C(C)(C)C)CC1	ACHN renal	> 100 µM
CN(C)C(=O)c1cc2cnc(Nc3ccc(-c4csc5c(=S)cc(N6CCOCC6)oc45)cc3)nc2n1C1CCCC1	ACHN renal	> 50 µM
COC[C@@H](C[C@H]1O[C@@](O)([C@H](O)[C@@H]2C[C@H](OC)[C@@H](O)CC/C=C(C)/C=C/[C@@H](O[C@@H]3O[C@@H](C)[C@H](OC)[C@@H](O)[C@@H]3O)[C@H](C)/C=C(C)/C=C(C)/C=C(\C)C(=O)O2)[C@H](C)[C@@H](O)[C@H]1C)O[C@H]1C[C@](C)(O)[C@@H](O[C@H]2C[C@@H](OC)[C@H](O)[C@@H](C)O2)C(C)O1 (some centres undefined)	ACHN renal	> 100 µM
Cc1cc(Cl)ccc1N=C1NC(=O)C(CC(=O)Nc2ccc([N+](=O)[O-])cc2[N+](=O)[O-])S1 (centres undefined)	ACHN renal	71.4 µM
COC1=C(C)C(=O)c2c(c(COC(N)=O)c3n2CC2C3N2C)C1=O (centres undefined)	ACHN renal	< 0.0139 µM
CC(=O)OC(/C=C/c1ccccc1)=C(OC(C)C)/C1=C(\c2ccccc2)SCCCSC1=O	ACHN renal	> 100 µM
N#CCN1C(=O)c2cccc3cc([N+](=O)[O-])cc(c23)C1=O	ACHN renal	> 100 µM
O=C1C=C(C2=CC(=O)C(=O)c3ccccc32)c2ccccc2C1=O	ACHN renal	> 100 µM

* * *

TGI overview
System: RPMI-8226 leukemia
Experiment: NCI tumour cell line growth inhibition, 48 h
measurement-kind: TGI

smiles-record	measured-target	value-measured
COC1=C(OC)C(=O)C(Cc2c(C)nc3sc(C)cn23)=C(C)C1=O	RPMI-8226 leukemia	39.2 µM
COc1ccc(/C=C/c2ccnc3ccccc23)c(OC)c1	RPMI-8226 leukemia	> 10 µM
c1ccc2c(c1)ccn2CCc1c[nH]c2ccccc12	RPMI-8226 leukemia	> 10 µM
CN1C(=O)c2cccc3cc([N+](=O)[O-])cc(c23)C1=O	RPMI-8226 leukemia	> 10 µM

* * *

GI50 overview
System: KM12 colon
Assay: NCI tumour cell line growth inhibition, 48 h

compound	GI50
O=C1OC(C(O)CO)C(=O)C1=O (stereo unspecified)	3500 µM
COc1cc2ncnc(Nc3ccc(C)c(O)c3)c2cc1OC	> 25 µM
COC(=O)[C@H](C)NC(=O)NC(=O)NC(=O)CI	17.8 µM
CC(=O)[O-].CCN(CC)c1ccc(C=NCCN=Cc2ccc(N(CC)CC)cc2[O-])c([O-])c1.[Mn+3]	17.8 µM
CCC[CH2][Sn]1([CH2]CCC)[O]CC(CN2CCCC2)[O]1 (stereo unspecified)	16.1 µM
COC1=CC(=O)c2nc(-c3cccc(C)n3)[nH]c2C1=O	35.4 µM

* * *

Tested on: 786-0 renal
Assay: NCI tumour cell line growth inhibition, 48 h
measurement-kind: TGI

compound	measured-target	value-measured
Cc1cc(C(=O)Nc2ncc(Cc3cccc(C(F)(F)F)c3)s2)c2ccccc2n1	786-0 renal	> 100 µM
CCOP(C)(=O)C(N)Cc1ccc(OC)c(OC)c1 (centres undefined)	786-0 renal	> 100 µM
CS/C(N)=N\NC(=O)CCC(=O)Nc1ccccc1C(F)(F)F	786-0 renal	> 100 µM
COc1cc2c(cc1OC)C(CC(=O)NN=C(C)C)NCC2 (centres undefined)	786-0 renal	> 100 µM
O=C1OC(c2ccccc2)=N/C1=C\c1cccc2ccccc12	786-0 renal	> 100 µM
CCCCC(O)(c1ccc(Cl)cc1)C(CN1CCOCC1)c1ccc(Cl)cc1 (centres undefined)	786-0 renal	27.5 µM
COc1nc2ccccc2cc1-c1nc2c(cnn2-c2ccc(Br)cc2)c(=O)[nH]1	786-0 renal	8.6 µM
CCOC(=O)CC1(C(=O)OCC)c2[nH]c3ccccc3c2CCN1Cc1ccccc1 (centres undefined)	786-0 renal	31.8 µM
COC1(OC)C2(Cl)C(Cl)=C(Cl)C1(Cl)C1C=CC=CC12 (centres undefined)	786-0 renal	> 100 µM

* * *

Test system: HOP-92 NSCLC
Assay: NCI tumour cell line growth inhibition, 48 h
measurement-kind: TGI

compound	measurement-kind	value-measured
COc1cc(-c2ccc3c(c2)NC(=O)/C3=C\c2ccc[nH]2)ccc1O	TGI	> 50 µM
COc1ccc(C(=O)C(C(=O)CCC(=O)Nc2cccc(Cl)c2)c2ccc(OC)cc2)cc1 (centres undefined)	TGI	> 100 µM
Clc1ccc(C2=Nn3c(COc4ccccc4Cl)nnc3SC2)c(Cl)c1	TGI	> 100 µM
Cc1ccc2c(c1)C(C(=O)N[C@@H]1C(=O)N3[C@@H]1SC(C)(C)[C@@H]3C(=O)O)OCCC2 (some centres undefined)	TGI	> 100 µM
CC1OC(OC2C(O[C@H]3CC[C@@]4(C)C(=CC[C@H]5[C@@H]6C[C@@H]7O[C@]8(CC[C@@H](CO)CO8)[C@@H](C)[C@@H]7[C@@]6(C)CC[C@@H]54)C3)OC(CO)C(O)C2OC2OC(CO)C(O)C(O)C2O)C(O)C(O)C1O (some centres undefined)	TGI	3.32 µM
CCOC(=O)N/N=C(/N)c1cccc([N+](=O)[O-])c1	TGI	> 100 µM
Nc1nc(N)c2ncn(-c3ccc(Cl)cc3)c2n1	TGI	> 100 µM
O=S(=O)(N=S(c1ccccc1)c1ccccc1)c1ccccc1	TGI	> 100 µM
CC(=O)OC(/C=C/c1ccccc1)=C(OC(C)C)/C1=C(\c2ccccc2)SCCCSC1=O	TGI	> 100 µM
NC(N)=N/N=C(\c1nc2ccc([N+](=O)[O-])cc2[nH]c1=O)C(O)c1ccc([N+](=O)[O-])cc1 (centres undefined)	TGI	> 100 µM
Oc1ccccc1C(Sc1nc2ccccc2s1)Sc1nc2ccccc2s1	TGI	95 µM
CC1(C)C(=O)N(CCCCCCN2C(=O)C(C)(C)c3ccccc32)c2ccccc21	TGI	> 100 µM
O=C1C(CN2CCCCC2)CCC1CN1CCCCC1 (centres undefined)	TGI	54.6 µM
O=C1CCN2C(=O)CCN12	TGI	> 100 µM
